Exercise: for every item that follows, state its recorded molar heat capacity at constant pressure.
assay: molar heat capacity at constant pressure; details: 425.15 K; 101.33 kPa; Liquid; Small sample (50 mg) DSC
One number for each entry, in J/K/mol.

Below, 5 molecules whose answers are already recorded.
INSERT INTO assay_data (molecule, assay_readout, observed) VALUES
  ('CCCCCCn1cc[n+](C)c1.O=S(=O)([O-])C(F)(F)F [1-hexyl-3-methylimidazolium trifluoromethanesulfonate]', 'molar heat capacity at constant pressure', 589),
  ('CCCCCC[n+]1ccn(C)c1.O=S(=O)([N-]S(=O)(=O)C(F)(F)F)C(F)(F)F', 'molar heat capacity at constant pressure', 739),
  ('CCn1cc[n+](C)c1.O=S(=O)([O-])C(F)(F)F [1-ethyl-3-methylimidazolium trifluoromethanesulfonate]', 'molar heat capacity at constant pressure', 425),
  ('CCCC[n+]1ccccc1.O=S(=O)([N-]S(=O)(=O)C(F)(F)F)C(F)(F)F [1-butylpyridinium bis[(trifluoromethyl)sulfonyl]imide]', 'molar heat capacity at constant pressure', 641),
  ('CCCCn1cc[n+](C)c1.O=S(=O)([O-])C(F)(F)F [1-butyl-3-methylimidazolium trifluoromethanesulfonate]', 'molar heat capacity at constant pressure', 506);

Continue with the next molecule.
[ask] Which measured molar heat capacity at constant pressure value corresponds to CCCCCCCCn1cc[n+](C)c1.O=S(=O)([O-])C(F)(F)F [1-octyl-3-methylimidazolium trifluoromethanesulfonate] ?
[reply] 680

* * *

assay: molar heat capacity at constant pressure; settings: 420.15 K; 101.33 kPa; Liquid; Small sample (50 mg) DSC
Lab note: anything with molar heat capacity at constant pressure below 600 J/K/mol is marked Satisfied; values at 600 J/K/mol or higher are marked Not satisfied.

// below: answered molecules
INSERT INTO measurements (molecule, class) VALUES
  ('CCCCn1cc[n+](C)c1.O=S(=O)([O-])C(F)(F)F [1-butyl-3-methylimidazolium trifluoromethanesulfonate]', 'Satisfied'),
  ('CCCCCC[n+]1ccn(C)c1.O=S(=O)([N-]S(=O)(=O)C(F)(F)F)C(F)(F)F', 'Not satisfied'),
  ('CCCC[n+]1ccccc1.O=S(=O)([N-]S(=O)(=O)C(F)(F)F)C(F)(F)F [1-butylpyridinium bis[(trifluoromethyl)sulfonyl]imide]', 'Not satisfied'),
  ('CCn1cc[n+](C)c1.O=S(=O)([O-])C(F)(F)F [1-ethyl-3-methylimidazolium trifluoromethanesulfonate]', 'Satisfied');

# input for lookup
[ask] Is 600 J/K/mol strictly greater than the molecule's reported molar heat capacity at constant pressure? molecule: CCCCCCCCn1cc[n+](C)c1.O=S(=O)([O-])C(F)(F)F [1-octyl-3-methylimidazolium trifluoromethanesulfonate]
[reply] Not satisfied

* * *

experiment: molar heat capacity at constant pressure; settings: 370.15 K; 101.33 kPa; Liquid; Small sample (50 mg) DSC
Exercise: for every item that follows, state its recorded molar heat capacity at constant pressure.
Give bare numbers, in J/K/mol.

Below, 6 compounds whose answers are already recorded.
INSERT INTO assay_data (compound, u, observed) VALUES
  ('CCCCCC[n+]1ccn(C)c1.O=S(=O)([N-]S(=O)(=O)C(F)(F)F)C(F)(F)F', 'J/K/mol', 700),
  ('CCCCCCn1cc[n+](C)c1.O=S(=O)([O-])C(F)(F)F [1-hexyl-3-methylimidazolium trifluoromethanesulfonate]', 'J/K/mol', 556),
  ('CCCCCCCCn1cc[n+](C)c1.O=S(=O)([O-])C(F)(F)F [1-octyl-3-methylimidazolium trifluoromethanesulfonate]', 'J/K/mol', 641),
  ('O', 'J/K/mol', 75.8),
  ('CCCCn1cc[n+](C)c1.O=S(=O)([O-])C(F)(F)F [1-butyl-3-methylimidazolium trifluoromethanesulfonate]', 'J/K/mol', 476),
  ('CCCC[n+]1ccccc1.O=S(=O)([N-]S(=O)(=O)C(F)(F)F)C(F)(F)F [1-butylpyridinium bis[(trifluoromethyl)sulfonyl]imide]', 'J/K/mol', 610);

[ask] Which measured molar heat capacity at constant pressure value corresponds to CCn1cc[n+](C)c1.O=S(=O)([O-])C(F)(F)F [1-ethyl-3-methylimidazolium trifluoromethanesulfonate] ?
[reply] 405

* * *

test: molar heat capacity at constant pressure; conditions: 388.15 K; 101.33 kPa; Liquid; modulated-temperature differential scanning calorimetry MDSC
Exercise: for every item that follows, state its recorded molar heat capacity at constant pressure.
One number for each entry, in J/K/mol.

Below, 4 molecules whose answers are already recorded.
INSERT INTO assay_data (molecule, observed) VALUES
  ('CCCC[n+]1ccccc1.O=S(=O)([N-]S(=O)(=O)C(F)(F)F)C(F)(F)F [1-butylpyridinium bis[(trifluoromethyl)sulfonyl]imide]', 635),
  ('CCCCCC[n+]1ccn(C)c1.O=S(=O)([N-]S(=O)(=O)C(F)(F)F)C(F)(F)F', 714),
  ('CCCCn1cc[n+](C)c1.O=S(=O)([O-])C(F)(F)F [1-butyl-3-methylimidazolium trifluoromethanesulfonate]', 471),
  ('CCn1cc[n+](C)c1.O=S(=O)([O-])C(F)(F)F [1-ethyl-3-methylimidazolium trifluoromethanesulfonate]', 414);

# per-item lookup of molar heat capacity at constant pressure; items listed below
1. CCCCCCn1cc[n+](C)c1.O=S(=O)([O-])C(F)(F)F [1-hexyl-3-methylimidazolium trifluoromethanesulfonate]
2. CCCCCCCCn1cc[n+](C)c1.O=S(=O)([O-])C(F)(F)F [1-octyl-3-methylimidazolium trifluoromethanesulfonate]

[reply]
[549, 637]

* * *

assay: molar heat capacity at constant pressure; details: 378.15 K; 101.33 kPa; Liquid; modulated-temperature differential scanning calorimetry MDSC
Lab note: anything with molar heat capacity at constant pressure below 600 J/K/mol is marked Y; values at 600 J/K/mol or higher are marked N.

// below: answered molecules
INSERT INTO results (molecule, class) VALUES
  ('CCCCCCn1cc[n+](C)c1.O=S(=O)([O-])C(F)(F)F [1-hexyl-3-methylimidazolium trifluoromethanesulfonate]', 'Y'),
  ('CCn1cc[n+](C)c1.O=S(=O)([O-])C(F)(F)F [1-ethyl-3-methylimidazolium trifluoromethanesulfonate]', 'Y');

[ask] Is 600 J/K/mol strictly greater than the molecule's reported molar heat capacity at constant pressure? molecule: CCCCn1cc[n+](C)c1.O=S(=O)([O-])C(F)(F)F [1-butyl-3-methylimidazolium trifluoromethanesulfonate]
[reply] Y

* * *

assay: molar heat capacity at constant pressure; details: 368.15 K; 101.33 kPa; Liquid; modulated-temperature differential scanning calorimetry MDSC
assay.readout: molar heat capacity at constant pressure (J/K/mol)
Answers are plain numbers, in J/K/mol.

Below, 3 compounds whose answers are already recorded.
INSERT INTO assay_data (compound, observed) VALUES
  ('CCCCCC[n+]1ccn(C)c1.O=S(=O)([N-]S(=O)(=O)C(F)(F)F)C(F)(F)F', 705),
  ('CCCC[n+]1ccccc1.O=S(=O)([N-]S(=O)(=O)C(F)(F)F)C(F)(F)F [1-butylpyridinium bis[(trifluoromethyl)sulfonyl]imide]', 623),
  ('CCCCCCn1cc[n+](C)c1.O=S(=O)([O-])C(F)(F)F [1-hexyl-3-methylimidazolium trifluoromethanesulfonate]', 540);

# per-item lookup of molar heat capacity at constant pressure; items listed below
1. CCCCCCCCn1cc[n+](C)c1.O=S(=O)([O-])C(F)(F)F [1-octyl-3-methylimidazolium trifluoromethanesulfonate]
2. CCn1cc[n+](C)c1.O=S(=O)([O-])C(F)(F)F [1-ethyl-3-methylimidazolium trifluoromethanesulfonate]
3. CCCCn1cc[n+](C)c1.O=S(=O)([O-])C(F)(F)F [1-butyl-3-methylimidazolium trifluoromethanesulfonate]

[reply]
1: 625; 2: 408; 3: 463

* * *

experiment: molar heat capacity at constant pressure; settings: 390.15 K; 101.33 kPa; Liquid; Small sample (50 mg) DSC
Exercise: for every item that follows, state its recorded molar heat capacity at constant pressure.
Numbers only, in J/K/mol.

Below, 4 molecules whose answers are already recorded.
INSERT INTO assay_data (molecule, assay_readout, u, observed) VALUES
  ('CCCC[n+]1ccccc1.O=S(=O)([N-]S(=O)(=O)C(F)(F)F)C(F)(F)F [1-butylpyridinium bis[(trifluoromethyl)sulfonyl]imide]', 'molar heat capacity at constant pressure', 'J/K/mol', 622),
  ('CCCCCC[n+]1ccn(C)c1.O=S(=O)([N-]S(=O)(=O)C(F)(F)F)C(F)(F)F', 'molar heat capacity at constant pressure', 'J/K/mol', 713),
  ('CCCCCCn1cc[n+](C)c1.O=S(=O)([O-])C(F)(F)F [1-hexyl-3-methylimidazolium trifluoromethanesulfonate]', 'molar heat capacity at constant pressure', 'J/K/mol', 568),
  ('CCCCCCCCn1cc[n+](C)c1.O=S(=O)([O-])C(F)(F)F [1-octyl-3-methylimidazolium trifluoromethanesulfonate]', 'molar heat capacity at constant pressure', 'J/K/mol', 655);

# per-item lookup of molar heat capacity at constant pressure; items listed below
1. CCCCn1cc[n+](C)c1.O=S(=O)([O-])C(F)(F)F [1-butyl-3-methylimidazolium trifluoromethanesulfonate]
2. CCn1cc[n+](C)c1.O=S(=O)([O-])C(F)(F)F [1-ethyl-3-methylimidazolium trifluoromethanesulfonate]

[reply]
1. 487
2. 412
